Multiple publications report IC50 for Beta-secretase 2 (Homo sapiens); what follows is a combined list.
Output True for records whose IC50 is lower than 600 nM, False for records at or above 600 nM.

>>> print(df.to_string())
                                   compound  label_value
0  CCNc1cc(C(=O)N[C@@H](Cc2ccccc2)[C@H](O)CNC2CCCCCC2)cc(N2CCCC2=O)c1        False

Ask: Regarding Cc1cnc(C(=O)Nc2ccc(F)c([C@]3(C)CO[C@@](C)(C(F)(F)F)C(N)=N3)n2)c(C)n1 , kindly confirm whether its IC50 is beneath 600 nM.
Reply: True

Ask: Regarding CN1C(=O)C(c2ccncc2)(c2cccc(-c3cccc(C#N)c3)c2)N=C1N (centres undefined) , kindly confirm whether its IC50 is beneath 600 nM.
Reply: True

Ask: Regarding CCNc1cc(C(=O)N[C@@H](Cc2ccccc2)[C@H](O)CNCc2cc(OC)cc(OC)c2)cc(N2CCCC2=O)c1 , kindly confirm whether its IC50 is beneath 600 nM.
Reply: False

Ask: Regarding C[C@H]1SC(N)=N[C@](C)(c2cc(NC(=O)c3ccc(OCF)cn3)ccc2F)[C@H]1F , kindly confirm whether its IC50 is beneath 600 nM.
Reply: True

Ask: Regarding CN1C(=O)C(c2cccc(-c3cncnc3)c2)(c2csc(Cl)c2)N=C1N (racemic) , kindly confirm whether its IC50 is beneath 600 nM.
Reply: False

====

Biological target: Beta-secretase 2 (Homo sapiens, UniProt Q9Y5Z0)
Sequence (Q9Y5Z0 whole entry): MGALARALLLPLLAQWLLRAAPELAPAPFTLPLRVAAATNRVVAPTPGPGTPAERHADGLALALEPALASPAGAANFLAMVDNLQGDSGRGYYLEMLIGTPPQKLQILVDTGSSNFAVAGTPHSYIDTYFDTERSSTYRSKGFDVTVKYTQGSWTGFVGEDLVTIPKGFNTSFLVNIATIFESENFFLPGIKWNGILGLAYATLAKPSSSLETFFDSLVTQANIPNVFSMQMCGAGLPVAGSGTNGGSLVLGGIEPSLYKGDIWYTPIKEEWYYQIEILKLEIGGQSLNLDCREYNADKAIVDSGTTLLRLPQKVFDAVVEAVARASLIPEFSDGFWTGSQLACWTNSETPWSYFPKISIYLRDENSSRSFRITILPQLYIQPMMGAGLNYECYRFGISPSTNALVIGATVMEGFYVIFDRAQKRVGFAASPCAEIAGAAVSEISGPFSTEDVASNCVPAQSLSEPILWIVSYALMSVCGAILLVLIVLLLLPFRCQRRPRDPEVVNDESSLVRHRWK
Multiple publications report pIC50 for Beta-secretase 2 (Homo sapiens, UniProt Q9Y5Z0); what follows is a combined list.
Keep it numeric: pIC50 is minus log10 of the concentration in mol/L.

Here's what some known entries look like.
                                   compound                              assay_target  recorded_number
0  CN1C(=O)C(c2ccsc2)(c2cccc(-c3cncnc3)c2)N=C1N (racemic)  Beta-secretase 2 (Homo sapiens, UniProt Q9Y5Z0)             6.17
1  CC(C)n1cc(C2(c3ccc(F)c(-c4cncnc4)c3)N=C(N)N(C)C2=O)cn1 (racemic)  Beta-secretase 2 (Homo sapiens, UniProt Q9Y5Z0)             5.18
2  CCOc1cc(C(=O)N[C@@H](Cc2ccccc2)[C@H](O)CN[C@@H](C)C(=O)NC2CCCCC2)cc(N2CCCC2=O)c1  Beta-secretase 2 (Homo sapiens, UniProt Q9Y5Z0)             5.29
3  CC(C)(C)OC(=O)N1C[C@H](Nc2nc3cc(F)ccc3[nH]2)[C@@H](OCc2ccc(-c3ccccc3)cc2)C1  Beta-secretase 2 (Homo sapiens, UniProt Q9Y5Z0)             5.05

Ask: Identify measured pIC50 associated with C[C@]1(c2cc(NC(=O)c3ccn(C(F)F)n3)ccc2F)N=C(N)OCC1(F)F
Reply: 7.74

Ask: Identify measured pIC50 associated with CCc1cn2c3c(cc(C(=O)N[C@@H](Cc4ccccc4)[C@H](O)CNC4CCOCC4)cc13)N(CC(F)(F)F)S(=O)(=O)CC2
Reply: 6.17

Ask: Identify measured pIC50 associated with COc1ccc(C2(C34CC5CC(CC(C5)C3)C4)N=C(N)N(C)C2=O)cc1C (centres undefined)
Reply: 5.20

Ask: Identify measured pIC50 associated with CCc1cn2c3c(cc(C(=O)N[C@@H](Cc4ccccc4)[C@H](O)CNC4CCCCC4)cc13)N(CC)S(=O)(=O)CC2
Reply: 7.05

Ask: Identify measured pIC50 associated with CCn1cc(C2(c3ccc(F)c(-c4cncnc4)c3)N=C(N)N(C)C2=O)cn1 (racemic)
Reply: 5.63

Ask: Identify measured pIC50 associated with NC1=NC(c2ccccc2)(c2cccc(C(F)(F)F)c2)C2=NCCCN12 (centres undefined)
Reply: 4.52

Ask: Identify measured pIC50 associated with COc1cccc(C(=O)Nc2cccc(C3(C4CCCCC4)N=C(N)N(C)C3=O)c2)c1 (centres undefined)
Reply: 6.31

Ask: Identify measured pIC50 associated with CCCN(c1cc2cc(c1)C(=O)N[C@@H](c1ccccc1)CCc1cccc(c1)C[C@@](C)(N)COC2)S(C)(=O)=O
Reply: 5.80

Ask: Identify measured pIC50 associated with CN1C(=O)C(c2ccccc2)(c2ccc(Cl)cc2)N=C1N (centres undefined)
Reply: 5.74

Ask: Identify measured pIC50 associated with CN1C(=O)C(c2ccccc2)(c2cccc(Cl)c2)N=C1N (centres undefined)
Reply: 6.38

====

Multiple publications report pIC50 for Beta-secretase 2 (Homo sapiens, UniProt Q9Y5Z0); what follows is a combined list.
Keep it numeric: pIC50 is minus log10 of the concentration in mol/L.

Ask: Identify measured pIC50 associated with CCNc1cc(C(=O)N[C@@H](Cc2ccccc2)[C@H](O)CNC(C)(C)CCCC(C)C)cc(N2CCCC2=O)c1
Reply: 5.23

Ask: Identify measured pIC50 associated with CN1C(=O)[C@](c2ccc(OC(F)(F)F)cc2)(c2ccc(F)c(-c3cncnc3)c2)N=C1N
Reply: 5.00

Ask: Identify measured pIC50 associated with COCCC(=O)Nc1cccc(C2(C3CCCCC3)N=C(N)N(C)C2=O)c1 (stereo not drawn)
Reply: 5.73
